TARGET: Dual luciferase reporter (DLR) with N(ε)-acetyl-lysine at K529 of the Firefly enzyme
Sequence (chain, as listed by the source): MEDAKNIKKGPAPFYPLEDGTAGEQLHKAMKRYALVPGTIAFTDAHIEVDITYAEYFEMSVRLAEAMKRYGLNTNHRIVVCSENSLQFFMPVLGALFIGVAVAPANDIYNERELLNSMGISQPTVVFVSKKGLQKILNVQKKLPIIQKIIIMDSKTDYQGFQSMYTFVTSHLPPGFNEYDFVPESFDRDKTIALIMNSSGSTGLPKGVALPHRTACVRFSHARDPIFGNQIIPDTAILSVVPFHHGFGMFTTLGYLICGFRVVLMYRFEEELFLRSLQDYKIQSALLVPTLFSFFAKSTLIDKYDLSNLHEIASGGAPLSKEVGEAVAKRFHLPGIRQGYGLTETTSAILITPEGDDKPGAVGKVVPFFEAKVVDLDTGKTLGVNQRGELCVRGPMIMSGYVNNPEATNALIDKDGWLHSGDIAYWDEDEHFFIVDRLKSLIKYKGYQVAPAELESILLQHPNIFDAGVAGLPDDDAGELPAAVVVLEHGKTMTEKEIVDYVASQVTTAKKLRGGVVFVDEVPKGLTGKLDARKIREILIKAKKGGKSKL
MEASURED_ATTRIBUTE: DLR activity [rel. to wild-type] (rel. to wild-type)

• Dealocase-2 (protein) KPRVLVLTGAGISAESGIRTFRAADGLWEEHRVEDVGTPEGFDRDPELVQAFYNAGRRQLQQPEIQPNAAHLALAKLQDALGDRFLLVTQNVDNLHERAGNTNVIHMHGELLKVRCSQSGQVLDWTGDVTPEDKCHCCQFPAPLRPHVVWFGEMPLGMDEIYMALSMADIFIAIGTSGHVYPAAGFVHEAKLHGAHTVELNLEPSQVGNEFAEKYYGPASQVVPEFVEKLLKGLKAGSIA = 1.19

This collection of values is drawn from patent US20200240995.
